- System Under Test: CISD2 Gene Product (NAF-1) (Homo sapiens, UniProt Q8N5K1)
- Sequence (Q8N5K1 57-135 limits assumed): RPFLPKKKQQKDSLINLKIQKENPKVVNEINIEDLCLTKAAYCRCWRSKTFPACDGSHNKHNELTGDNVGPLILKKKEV
- Protocol Details: Stability of Fe-S cluster binding of purified NEET protein (absorbance 458 nm)
- Assay type: biochemical
- Reported Conditions: at 500 minutes, 60 μM compound, vehicle control 3%
Observed Property: Residual cluster bound at end of experiment (Percentage Absorbance 458 nm at time zero)

{"columns": ["Compound", "System Under Test", "Value Observed"],
 "data": [
  ["Cc1ccccc1C(=O)Nc1scc(-c2ccccc2)c1C(=O)O [Compound #42]", "CISD2 Gene Product (NAF-1) (Homo sapiens, UniProt Q8N5K1)", "2% (3%)"],
  ["O=C(Nc1scc(C2CCCCC2)c1C(=O)O)c1ccccc1 [Compound #26]", "CISD2 Gene Product (NAF-1) (Homo sapiens, UniProt Q8N5K1)", "18% (3%)"],
  ["O=C(Nc1scc(C2CC3CCC2C3)c1C(=O)O)c1ccccc1 (stereo not shown) [Compound #9]", "CISD2 Gene Product (NAF-1) (Homo sapiens, UniProt Q8N5K1)", "17% (3%)"],
  ["Cc1c(-c2ccccc2)sc(NC(=O)c2ccccc2)c1C(=O)O [Compound #40]", "CISD2 Gene Product (NAF-1) (Homo sapiens, UniProt Q8N5K1)", "9% (3%)"],
  ["O=C(Nc1scc(-c2ccc(Cl)cc2)c1C(=O)O)c1ccccc1 [Compound #1]", "CISD2 Gene Product (NAF-1) (Homo sapiens, UniProt Q8N5K1)", "13% (3%)"],
  ["O=C(Nc1scc(-c2ccc(Cl)c(F)c2)c1C(=O)O)c1ccccc1 [Compound #2]", "CISD2 Gene Product (NAF-1) (Homo sapiens, UniProt Q8N5K1)", "18% (3%)"],
  ["O=C(Nc1sc(Cl)c(C2CCCC2)c1C(=O)O)c1ccccc1 [Compound #18]", "CISD2 Gene Product (NAF-1) (Homo sapiens, UniProt Q8N5K1)", "38% (3%)"]
]}

* * *

- System Under Test: CISD1 Gene Product (mitoNEET) (Homo sapiens, UniProt Q9NZ45)
- Sequence (Q9NZ45 33-108 limits assumed): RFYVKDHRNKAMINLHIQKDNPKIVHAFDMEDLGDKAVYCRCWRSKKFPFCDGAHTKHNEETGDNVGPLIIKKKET
- Protocol Details: Stability of Fe-S cluster binding of purified NEET protein (absorbance 458 nm)
- Type: biochemical
- Reported Conditions: pH 6, 37° C., 20 μM protein, 60 μM compound, run time 180 minutes, vehicle control 80
Observed Property: Time (in minutes) to achieve 50% loss of bound cluster (Absorbance 458 nm)

{"columns": ["Molecule", "Value Observed"],
 "data": [
  ["O=C(Nc1scc(-c2ccc(Cl)cc2)c1C(=O)O)c1ccccc1", "100 (80) minutes"],
  ["O=C(Nc1scc(-c2ccc(Cl)c(F)c2)c1C(=O)O)c1ccccc1", "during 180 minutes"],
  ["O=C(Nc1sc(Cl)c(C2CCCC2)c1C(=O)O)c1ccccc1", "during 180 minutes"],
  ["Cc1ccccc1C(=O)Nc1scc(-c2ccccc2)c1C(=O)O", "100 (80) minutes"],
  ["O=C(Nc1scc(C2CCCCC2)c1C(=O)O)c1ccccc1", "105 (80) minutes"],
  ["Cc1c(-c2ccccc2)sc(NC(=O)c2ccccc2)c1C(=O)O", "95 (80) minutes"],
  ["O=C(Nc1scc(C2CC3CCC2C3)c1C(=O)O)c1ccccc1 (stereo not shown)", "100 (80) minutes"]
]}

* * *

- System Under Test: UniProt:P0C7P0
- Sequence (P0C7P0 15-127): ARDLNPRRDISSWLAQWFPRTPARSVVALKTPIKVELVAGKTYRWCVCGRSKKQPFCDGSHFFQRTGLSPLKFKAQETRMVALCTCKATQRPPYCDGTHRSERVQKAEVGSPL
- Protocol Details: Stability of Fe-S cluster binding of purified NEET protein (absorbance 458 nm)
- Type: biochemical
- Reported Conditions: CISD3 gene product; at 180 minutes; 60 μM compound; vehicle control (DMSO) 11%
The entries below come with measured Residual cluster bound at end of experiment (Percentage Absorbance 458 nm at time zero) values attached.
Observed Property: Residual cluster bound at end of experiment (Percentage Absorbance 458 nm at time zero)

{"columns": ["Molecule", "System Under Test", "Value Observed"],
 "data": [
  ["O=C(Nc1sc(Cl)c(C2CCCC2)c1C(=O)O)c1ccccc1 [Compound #18]", "UniProt:P0C7P0", "69% (11%)"],
  ["Cc1ccccc1C(=O)Nc1scc(-c2ccccc2)c1C(=O)O [Compound #42]", "UniProt:P0C7P0", "37% (11%)"],
  ["O=C(Nc1scc(-c2ccc(Cl)cc2)c1C(=O)O)c1ccccc1 [Compound #1]", "UniProt:P0C7P0", "47% (11%)"],
  ["Cc1c(-c2ccccc2)sc(NC(=O)c2ccccc2)c1C(=O)O [Compound #40]", "UniProt:P0C7P0", "24% (11%)"],
  ["O=C(Nc1scc(-c2ccc(Cl)c(F)c2)c1C(=O)O)c1ccccc1 [Compound #2]", "UniProt:P0C7P0", "52% (11%)"],
  ["O=C(Nc1scc(C2CC3CCC2C3)c1C(=O)O)c1ccccc1 (stereo not shown) [Compound #9]", "UniProt:P0C7P0", "57% (11%)"],
  ["O=C(Nc1scc(C2CCCCC2)c1C(=O)O)c1ccccc1 [Compound #26]", "UniProt:P0C7P0", "52% (11%)"]
]}

* * *

- System: MAXF 401
- Protocol Details: Cytotoxicity, propidium iodide-based monolayer assay
- Assay type: cell-based
- Reported Conditions: Homo sapiens, MAXF401, 96 h; MAXF 401, breast adeno carcinoma; four days of treatment; T/C=50%; read-out: Absolute IC50
Observed Property: IC50 (µM)

{"columns": ["Compound", "Observed Property", "Value Observed"],
 "data": [
  ["O=C(Nc1scc(-c2ccc(Cl)c(F)c2)c1C(=O)O)c1ccccc1 [Compound #2]", "IC50", 6.56]
]}

* * *

- System Under Test: CISD2 Gene Product (NAF-1) (Homo sapiens)
- Protocol Details: Stability of Fe-S cluster binding of purified NEET protein (absorbance 458 nm)
- Assay type: biochemical
- Reported Conditions: pH 6, 37° C., 20 μM protein, 60 μM compound, run time 500 minutes, vehicle control 310
Observed Property: Time (in minutes) to achieve 50% loss of bound cluster (Absorbance 458 nm)

{"columns": ["Compound", "Value Observed"],
 "data": [
  ["O=C(Nc1scc(C2CCCCC2)c1C(=O)O)c1ccccc1", "355 (310) minutes"],
  ["Cc1c(-c2ccccc2)sc(NC(=O)c2ccccc2)c1C(=O)O", "390 (310) minutes"],
  ["O=C(Nc1sc(Cl)c(C2CCCC2)c1C(=O)O)c1ccccc1", "240 (310) minutes"],
  ["O=C(Nc1scc(-c2ccc(Cl)cc2)c1C(=O)O)c1ccccc1", "425 (310) minutes"],
  ["O=C(Nc1scc(C2CC3CCC2C3)c1C(=O)O)c1ccccc1 (stereo not shown)", "370 (310) minutes"],
  ["Cc1ccccc1C(=O)Nc1scc(-c2ccccc2)c1C(=O)O", "330 (310) minutes"]
]}
